All figures here come from PubChem BioAssay AID504690.

Tested on: glucose-6-phosphate dehydrogenase-6-phosphogluconolactonase (Plasmodium falciparum 3D7)
Assay: inhibition of malaria parasite G6PD (PfGluPho) – biochemical, fluorescence intensity, uHTS, primary screen (AID 504690);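 note: 0% = DMSO wells with substrate and 100% = DMSO wells lacking glucose-6-phosphate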
Details: PfGluPho enzyme, NADPH resazurin-diaphorase fluorescence; at 20 µM; active compounds read high
The campaign covered roughly 350,000 compounds. About 2,700 (0.77%) were called active. This is one part of a sample in which actives are shown more often than they occur.
ENDPOINT_NAME: inhibition (%)
The reply should be a number in %, with the unit left off.

COMPOUND	inhibition, %
CCCCNC(=O)c1ccccc1NC(=O)C1=C(C)OCCS1	-13.5
C=C(C)C(=O)Nc1cccc(C2=NOC3(C2)C[C@H](C(N)=O)N(C(=O)C(c2ccccc2)c2ccccc2)C3)c1 (stereo not given in full)	-3.38
COc1ccccc1CCCNC(=O)C1CCC(=O)N(CCN2CCOCC2)C1 (stereo not given)	-4.18
Cc1ccc2oc(=O)ccc2c1	-9.67
CCOC(=O)N1CCN(C(=O)c2ccc3c(=O)n(CCc4ccc(OC)c(OC)c4)c(=O)[nH]c3c2)CC1	0.32

# input Return reported inhibition; argument: C[C@@H]1CN([C@@H](C)CO)S(=O)(=O)c2ccc(-c3ccc(C(=O)N(C)C)cc3)cc2O[C@@H]1CN(C)Cc1ccccc1C(=O)O
# output 1.43

# input Return reported inhibition; argument: Cc1ccc(-n2nc(-c3ccco3)cc2C(=O)NCc2cccnc2)cc1
# output 38.2

# input Return reported inhibition; argument: Cc1cc(=O)n2[nH]c(-c3sccc3-n3c(C)ccc3C)cc2n1
# output 10.7

---

Test system: glucose-6-phosphate dehydrogenase-6-phosphogluconolactonase (Plasmodium falciparum 3D7)
Assay: inhibition of malaria parasite G6PD (PfGluPho) – biochemical, fluorescence intensity, uHTS, primary screen (AID 504690);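 note: 0% = DMSO wells with substrate and 100% = DMSO wells lacking glucose-6-phosphate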
Settings: PfGluPho enzyme, NADPH resazurin-diaphorase fluorescence; at 20 µM
The whole screen tested about 350,000 compounds, of which about 2,700 (0.77%) were called active.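 The calls were made as follows: active = inhibition reaching at least a set limit at 20 µM in the primary screen (cut at about 59% in these data); inactive = the rest.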 The sample holds actives, similar compounds and a random draw of the others, so the mix is not that of the screen.
Choose one outcome from this list and give only that: active, inactive

Example results:
COMPOUND	ASSIGNED_CATEGORY
Cc1ccc2c(c1)NCC(C(=O)NC1CCC(C)CC1)O2 (configuration not stated)	inactive
CCc1ccc2oc(-c3ccc(N)cc3)nc2c1	inactive
C/C(=N/NC(=O)c1cc(Cl)ccc1O)C12CC3CC(CC(C3)C1)C2	inactive

# input Please let me know the test result on file for COc1ccc([N+](=O)[O-])cc1N(CC(O)Cn1nnc2ccccc21)S(=O)(=O)c1ccc(C)cc1 (configuration not stated) .
# output inactive

# input Please let me know the test result on file for CNC(=O)c1sc(Nc2ccc(OCc3ccccc3)cc2)nc1C .
# output inactive

# input Please let me know the test result on file for CC(Oc1ccc(F)cc1)C(=O)N1CCN(c2ncccn2)CC1 (configuration not stated) .
# output inactive

# input Please let me know the test result on file for COC(=O)c1ccc(N2CCOCC2)c(NC(=O)c2ccc3c(c2)OCCO3)c1 .
# output inactive

---

Tested on: glucose-6-phosphate dehydrogenase-6-phosphogluconolactonase (Plasmodium falciparum 3D7)
Test: inhibition of malaria parasite G6PD (PfGluPho) – biochemical, fluorescence intensity, uHTS, primary screen (AID 504690);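 note: 0% = DMSO wells with substrate and 100% = DMSO wells lacking glucose-6-phosphate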
Conditions: PfGluPho enzyme, NADPH resazurin-diaphorase fluorescence; at 20 µM; active compounds read high
Among all 350,000 compounds or so, about 2,700 (0.77%) were called active. Shown is part of a subset that was picked to be rich in actives.
Some compounds, each annotated with its measured inhibition.
The reply should be a number in %, with the unit left off.

For orientation, consider the following solved cases.
COMPOUND	ENDPOINT_NAME	VALUE_UNITS	RESULT
CCOC(=O)C(NC(=O)CC(C)C)(Nc1sc2c(c1C(N)=O)CCCC2)C(F)(F)F (stereo not given)	inhibition	%	-8.45
O=C(O)/C=C\C(=O)Nc1ccc(OCc2ccccc2)cc1	inhibition	%	-24.5
COc1ccc2[nH]c(=O)c(CNc3ccc(C)c(C)c3)cc2c1	inhibition	%	41
CC(=O)N(C1=C(Cl)C(=O)c2ccccc2C1=O)c1ccc(C(=O)O)cc1	inhibition	%	120

# input Return reported inhibition; argument: COC(=O)CCc1sc(Nc2ccc(Br)cc2)nc1-c1ccc(OC)cc1
# output 64.3
